This collection of values is drawn from patent US10478425B2.

Consider the following molecules; for each one, report its EC150.
target: Human AMPK α2β2γ1 (Homo sapiens, UniProt O43741+P54646); construct: The full length cDNAs of human AMPK β2 (NM_005399.3) and human AMPK α2 (NM_006252.3); The full length cDNAs of human AMPK β2 (NM_005399.3); the full length cDNA of human AMPK γ1 (NM_002733.3) had been inserted into pET28b(+); 6×His (N); made in house; host or cells: Escherichia coli BL21 CodonPlus (DE3)-RIL; assay: Test Example 2: activation of phosphorylated human AMPK α2β2γ1 (mobility-shift kinase assay, FL-Peptide 7); type: biochemical; settings: compound concentration showing 150% relative to the control (100%); human AMPK α2β2γ1 phosphorylated with CaMKK2
Sequence (P54646 whole entry): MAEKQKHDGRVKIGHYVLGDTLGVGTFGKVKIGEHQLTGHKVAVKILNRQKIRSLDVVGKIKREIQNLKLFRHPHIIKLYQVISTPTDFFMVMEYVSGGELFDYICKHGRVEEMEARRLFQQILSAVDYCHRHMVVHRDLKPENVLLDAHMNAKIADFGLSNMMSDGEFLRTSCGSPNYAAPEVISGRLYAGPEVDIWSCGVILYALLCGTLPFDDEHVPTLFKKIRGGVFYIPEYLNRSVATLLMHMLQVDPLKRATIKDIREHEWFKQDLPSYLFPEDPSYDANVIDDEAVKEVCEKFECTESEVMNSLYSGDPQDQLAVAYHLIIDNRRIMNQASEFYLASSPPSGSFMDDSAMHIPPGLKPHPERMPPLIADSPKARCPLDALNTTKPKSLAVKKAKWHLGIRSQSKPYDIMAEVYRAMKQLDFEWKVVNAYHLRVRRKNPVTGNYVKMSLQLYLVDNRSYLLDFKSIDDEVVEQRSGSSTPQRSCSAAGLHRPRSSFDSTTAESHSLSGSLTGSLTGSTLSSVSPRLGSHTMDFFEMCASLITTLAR
Sequence (O43741 whole entry): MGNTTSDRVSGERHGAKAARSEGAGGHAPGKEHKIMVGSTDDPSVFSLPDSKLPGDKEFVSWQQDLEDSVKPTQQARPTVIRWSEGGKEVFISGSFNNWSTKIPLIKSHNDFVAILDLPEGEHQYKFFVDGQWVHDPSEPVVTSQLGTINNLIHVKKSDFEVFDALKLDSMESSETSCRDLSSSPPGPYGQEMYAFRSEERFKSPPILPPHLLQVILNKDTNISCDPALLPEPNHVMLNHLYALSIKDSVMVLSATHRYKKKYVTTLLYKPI
Sequence (P54619 whole entry partner): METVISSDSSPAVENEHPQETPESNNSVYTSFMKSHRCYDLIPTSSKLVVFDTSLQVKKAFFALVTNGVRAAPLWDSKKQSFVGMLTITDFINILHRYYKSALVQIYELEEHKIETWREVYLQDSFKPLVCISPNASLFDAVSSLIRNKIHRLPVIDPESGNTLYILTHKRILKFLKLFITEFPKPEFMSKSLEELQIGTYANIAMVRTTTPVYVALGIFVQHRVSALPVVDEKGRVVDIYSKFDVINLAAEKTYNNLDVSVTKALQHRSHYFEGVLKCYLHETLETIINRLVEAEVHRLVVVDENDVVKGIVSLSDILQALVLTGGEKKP
Write down the numeric answer in nM and omit the unit.

Input: Query (molecule): CO[C@H]1[C@@H](CO)OC[C@H]1Oc1cc2nc(-c3ccc(-c4ccc(N=S(C)(C)=O)cc4)cc3)c(F)cc2[nH]1 ; field requested: EC150
Output: 8.6

Input: Query (molecule): COCC(=O)Nc1ccc(-c2ccc(-c3nc4cc(O[C@@H]5CO[C@H](CO)C5)[nH]c4cc3F)cc2)cc1 ; field requested: EC150
Output: 1.2

Input: Query (molecule): O[C@@H]1CO[C@H]2[C@@H]1OC[C@H]2Oc1cc2nc(-c3ccc([C@@H]4CCCC[C@@H]4O)cc3)c(F)cc2[nH]1 ; field requested: EC150
Output: 12

Input: Query (molecule): C[S+]([O-])c1ccc(-c2ccc(-c3nc4cc(O[C@@H]5CO[C@H]6[C@@H]5OC[C@H]6O)[nH]c4cc3F)cc2)cc1 (single isomer, unassigned) [Compound I-2-08] ; field requested: EC150
Output: 1.6

Input: Query (molecule): O[C@@H]1CO[C@H]2[C@@H]1OC[C@H]2Oc1cc2nc(-c3ccc(-c4ccc(OC5CNOC5)cc4)cc3)c(F)cc2[nH]1 (stereo partly drawn) ; field requested: EC150
Output: 3.7

Input: Query (molecule): O[C@@H]1CO[C@H]2[C@@H]1OC[C@H]2Oc1cc2nc(-c3ccc(-c4ccc(NC5=NCCO5)cc4)cc3)c(F)cc2[nH]1 ; field requested: EC150
Output: 2.3

Input: Query (molecule): CNC(=O)COc1ccc(-c2ccc(-c3nc4cc(O[C@@H]5CO[C@H]6[C@@H]5OC[C@H]6O)[nH]c4cc3F)cc2)cc1 ; field requested: EC150
Output: 2.2

Input: Query (molecule): CS(=O)(=O)Nc1ccc(-c2ccc(-c3nc4cc(O[C@@H]5CO[C@H]6[C@@H]5OC[C@H]6O)[nH]c4cc3F)cc2)cc1 ; field requested: EC150
Output: 1.6

Input: Query (molecule): COC(=O)N[C@H]1CC[C@H](c2ccc(-c3nc4cc(O[C@@H]5CO[C@H]6[C@@H]5OC[C@H]6O)[nH]c4cc3F)cc2)CC1 ; field requested: EC150
Output: 13

* * *

Consider the following compounds; for each one, report its Emax.
biological target: Human AMPK α2β2γ1 (Homo sapiens, UniProt O43741+P54646); construct: The full length cDNAs of human AMPK β2 (NM_005399.3) and human AMPK α2 (NM_006252.3); The full length cDNAs of human AMPK β2 (NM_005399.3); the full length cDNA of human AMPK γ1 (NM_002733.3) had been inserted into pET28b(+); 6×His (N); made in house; host or cells: Escherichia coli BL21 CodonPlus (DE3)-RIL; test: Test Example 2: activation of phosphorylated human AMPK α2β2γ1 (mobility-shift kinase assay, FL-Peptide 7); type: biochemical; settings: maximum rate of increase in activity within the measurement range, control = 100%; read-out: Emax
Write down the numeric answer in % and omit the unit.

Input: Query (compound): O[C@@H]1CO[C@H]2[C@@H]1OC[C@H]2Oc1cc2nc(-c3ccc(-c4ccc(OC5CCNC5)cc4)cc3)c(F)cc2[nH]1 (some centres unmarked) [Compound I-1-60] ; field requested: Emax
Output: 486

Input: Query (compound): CCOC(=O)N[C@H]1CC[C@H](c2ccc(-c3nc4cc(O[C@@H]5CO[C@H]6[C@@H]5OC[C@H]6O)[nH]c4cc3F)cc2)CC1 [Compound I-1-14] ; field requested: Emax
Output: 513

Input: Query (compound): COc1cc(-c2ccc(N=S3(=O)CCCC3)cc2)ccc1-c1nc2cc(O[C@@H]3CO[C@H]4[C@@H]3OC[C@H]4O)[nH]c2cc1F [Compound I-1-20] ; field requested: Emax
Output: 457

Input: Query (compound): O[C@@H]1CO[C@H]2[C@@H]1OC[C@H]2Oc1cc2nc(-c3ccc(-c4ccc(OCC5CCCO5)cc4)cc3)c(F)cc2[nH]1 (some centres unmarked) [Compound I-2-33] ; field requested: Emax
Output: 362

Input: Query (compound): CN(C)S(=N)(=O)c1ccc(-c2ccc(-c3nc4cc(O[C@@H]5CO[C@H](CO)C5)[nH]c4cc3F)cc2)cc1 (some centres unmarked) [Compound I-2-25] ; field requested: Emax
Output: 426

Input: Query (compound): O[C@@H]1CO[C@H]2[C@@H]1OC[C@H]2Oc1cc2nc(-c3ccc(-c4ccc(OC5CNCC5F)cc4)cc3)c(F)cc2[nH]1 (some centres unmarked) [Compound I-1-71] ; field requested: Emax
Output: 340

Input: Query (compound): O=C1OCCN1c1ccc(-c2ccc(-c3nc4cc(O[C@@H]5CO[C@H]6[C@@H]5OC[C@H]6O)[nH]c4cc3F)cc2)cc1 [Compound I-2-41] ; field requested: Emax
Output: 634

Input: Query (compound): O[C@@H]1CO[C@H]2[C@@H]1OC[C@H]2Oc1cc2nc(-c3ccc(-c4ccc(C5=NCCO5)cc4)cc3)c(F)cc2[nH]1 [Compound I-1-15] ; field requested: Emax
Output: 525

Input: Query (compound): O[C@@H]1CO[C@H]2[C@@H]1OC[C@H]2Oc1cc2nc(-c3ccc(-c4ccc(OC5CCNCC5)cc4)cc3)c(F)cc2[nH]1 [Compound I-2-60] ; field requested: Emax
Output: 564

Input: Query (compound): CNC(=O)c1ccc(-c2ccc(-c3nc4cc(O[C@@H]5CO[C@H]6[C@@H]5OC[C@H]6O)[nH]c4cc3F)cc2)cc1F [Compound I-1-54] ; field requested: Emax
Output: 416

Input: Query (compound): O=S1(=Nc2ccc(-c3ccc(-c4nc5cc(O[C@@H]6CO[C@H]7[C@@H]6OC[C@H]7O)[nH]c5cc4F)cc3)cc2)CCOCC1 [Compound I-1-42] ; field requested: Emax
Output: 472

* * *

molecular target: Human AMPK α2β2γ1 (Homo sapiens, UniProt O43741+P54646); construct: The full length cDNAs of human AMPK β2 (NM_005399.3) and human AMPK α2 (NM_006252.3); The full length cDNAs of human AMPK β2 (NM_005399.3); the full length cDNA of human AMPK γ1 (NM_002733.3) had been inserted into pET28b(+); 6×His (N); made in house; host or cells: Escherichia coli BL21 CodonPlus (DE3)-RIL; assay: Test Example 2: activation of phosphorylated human AMPK α2β2γ1 (mobility-shift kinase assay, FL-Peptide 7); type: biochemical; conditions: maximum rate of increase in activity within the measurement range, control = 100%; read-out: Emax
QUANTITY: Emax (%)
Write down the numeric answer in % and omit the unit.

Input: Notebook: pull reported Emax for Human AMPK α2β2γ1 (Homo sapiens, UniProt O43741+P54646), entry O[C@@H]1CO[C@H]2[C@@H]1OC[C@H]2Oc1cc2nc(-c3ccc(-c4ccc(OC5CNC[C@H]5F)cc4)cc3)c(F)cc2[nH]1 (stereo partly shown)
Output: 398

Input: Notebook: pull reported Emax for Human AMPK α2β2γ1 (Homo sapiens, UniProt O43741+P54646), entry C[S+]([O-])c1ccc(-c2ccc(-c3nc4cc(O[C@@H]5CO[C@H](CO)C5)[nH]c4cc3F)cc2)cc1 (single isomer, unassigned)
Output: 621

Input: Notebook: pull reported Emax for Human AMPK α2β2γ1 (Homo sapiens, UniProt O43741+P54646), entry CCC(=O)NC1CC(c2ccc(-c3nc4cc(O[C@@H]5CO[C@H]6[C@@H]5OC[C@H]6O)[nH]c4cc3F)cc2)C1 (stereo partly shown)
Output: 541

Input: Notebook: pull reported Emax for Human AMPK α2β2γ1 (Homo sapiens, UniProt O43741+P54646), entry O=C(c1ccc(-c2ccc(-c3nc4cc(O[C@@H]5CO[C@H](CO)C5)[nH]c4cc3F)cc2)cc1)N1CCOCC1
Output: 591

Input: Notebook: pull reported Emax for Human AMPK α2β2γ1 (Homo sapiens, UniProt O43741+P54646), entry O[C@@H]1CO[C@H]2[C@@H]1OC[C@H]2Oc1cc2nc(-c3ccc(C#CC4CCNCC4)cc3)c(F)cc2[nH]1
Output: 536

Input: Notebook: pull reported Emax for Human AMPK α2β2γ1 (Homo sapiens, UniProt O43741+P54646), entry COCCN(C)C(=O)c1ccc(-c2ccc(-c3nc4cc(O[C@@H]5CO[C@H](CO)C5)[nH]c4cc3F)cc2)cc1
Output: 581

Input: Notebook: pull reported Emax for Human AMPK α2β2γ1 (Homo sapiens, UniProt O43741+P54646), entry COCC(=O)Nc1ccc(-c2ccc(-c3nc4cc(O[C@@H]5CO[C@H]6[C@@H]5OC[C@H]6O)[nH]c4cc3F)cc2)cc1
Output: 636
